- Measurement Description: Toxicity in zebrafish assessed as mortality rate at 6.25 ug/ml
- Parameters: species or system Danio rerio
- Conditions: in vivo, at 6.25 µg/mL, read-out: Activity
Measurement Kind: mortality at 6.25 ug/ml (%)
Write it as a number; the unit % goes unstated.

In plain terms, Cc1ncsc1-c1ccc([C@H](C)NC(=O)[C@@H]2C[C@@H](O)CN2C(=O)[C@@H](NC(=O)CCCCc2cn(CCOCCOCCOCCOCCNC(=O)[C@H](C)CC(=O)C[C@@H](C)[C@H]3C[C@H](O)[C@@]4(C)C5=C(C(=O)C[C@]34C)[C@@]3(C)CCC(=O)C(C)(C)[C@@H]3C[C@@H]5O)nn2)C(C)(C)C)cc1 has a documented mortality at 6.25 ug/ml of 0

====

- Measurement Description: Cytotoxicity against mouse HT-22 cells assessed as cell viability at 100 uM incubated for 48 to 72 hrs by MTT assay
- Format: toxicity, cell-based
- Conditions: time 48-72 hrs, read-out: Activity
Measurement Kind: viability at 100 µM (%)
Write it as a number; the unit % goes unstated.

In plain terms, C[C@H](CC(=O)C[C@@H](C)[C@H]1C[C@H](O)[C@@]2(C)C3=C(C(=O)C[C@]12C)[C@@]1(C)CCC(=O)C(C)(C)[C@@H]1C[C@@H]3O)C(=O)NCCCn1cc(CNc2cccc3c2C(=O)N(C2CCC(=O)NC2=O)C3=O)nn1 (some centres not stated) has a documented viability at 100 µM of 94.9

In plain terms, C[C@H](CC(=O)C[C@@H](C)[C@H]1C[C@H](O)[C@@]2(C)C3=C(C(=O)C[C@]12C)[C@@]1(C)CCC(=O)C(C)(C)[C@@H]1C[C@@H]3O)C(=O)NCCOCCn1cc(CNc2cccc3c2C(=O)N(C2CCC(=O)NC2=O)C3=O)nn1 (some centres not stated) has a documented viability at 100 µM of 99.2

====

In this section, each of the compounds is paired with its reported viability at 100 µM.
- Test system: MCF7
- Measurement Description: Antiproliferative activity against human MCF7 cells assessed as cell viability at 100 uM incubated for 48 to 72 hrs by MTT assay
- Type: functional
- Conditions: time 48-72 hrs, read-out: Activity
Write it as a number; the unit % goes unstated.

Cc1ncsc1-c1ccc([C@H](C)NC(=O)[C@@H]2C[C@@H](O)CN2C(=O)[C@@H](NC(=O)CCCc2cn(CCOCCNC(=O)[C@H](C)CC(=O)C[C@@H](C)[C@H]3C[C@H](O)[C@@]4(C)C5=C(C(=O)C[C@]34C)[C@@]3(C)CCC(=O)C(C)(C)[C@@H]3C[C@@H]5O)nn2)C(C)(C)C)cc1 :: 66.9
C[C@H](CC(=O)C[C@@H](C)[C@H]1C[C@H](O)[C@@]2(C)C3=C(C(=O)C[C@]12C)[C@@]1(C)CCC(=O)C(C)(C)[C@@H]1C[C@@H]3O)C(=O)NCCCn1cc(CNc2cccc3c2C(=O)N(C2CCC(=O)NC2=O)C3=O)nn1 (stereo partly drawn) :: 70.5

Read the next record carefully.
In plain terms, Cc1ncsc1-c1ccc([C@H](C)NC(=O)[C@@H]2C[C@@H](O)CN2C(=O)[C@@H](NC(=O)CCCc2cn(CCOCCOCCOCCNC(=O)[C@H](C)CC(=O)C[C@@H](C)[C@H]3C[C@H](O)[C@@]4(C)C5=C(C(=O)C[C@]34C)[C@@]3(C)CCC(=O)C(C)(C)[C@@H]3C[C@@H]5O)nn2)C(C)(C)C)cc1 has a documented viability at 100 µM of 42.7

Data origin: ChEMBL document CHEMBL5500349
